Target: FAAH (Homo sapiens, UniProt O00519)
Sequence (O00519 whole entry): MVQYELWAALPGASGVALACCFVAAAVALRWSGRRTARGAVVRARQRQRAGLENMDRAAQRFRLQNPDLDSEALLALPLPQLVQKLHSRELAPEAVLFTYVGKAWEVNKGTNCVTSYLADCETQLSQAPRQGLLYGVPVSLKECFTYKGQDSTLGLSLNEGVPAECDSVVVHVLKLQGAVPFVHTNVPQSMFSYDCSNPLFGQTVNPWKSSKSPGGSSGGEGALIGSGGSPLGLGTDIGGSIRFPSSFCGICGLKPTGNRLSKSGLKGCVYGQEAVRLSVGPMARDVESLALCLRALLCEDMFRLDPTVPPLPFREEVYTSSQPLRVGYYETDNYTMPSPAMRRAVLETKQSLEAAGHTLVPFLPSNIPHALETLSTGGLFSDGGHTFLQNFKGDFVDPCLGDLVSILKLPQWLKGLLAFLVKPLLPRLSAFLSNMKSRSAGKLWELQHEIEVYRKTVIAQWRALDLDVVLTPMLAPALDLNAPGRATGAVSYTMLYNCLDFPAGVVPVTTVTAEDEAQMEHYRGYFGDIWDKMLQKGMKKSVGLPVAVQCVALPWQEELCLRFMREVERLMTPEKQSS
Assay: Assay Method 1: human FAAH assay (3H-anandamide hydrolysis in cell homogenate)
Format: biochemical
Parameters: expressed in transfected cells; host or cells: SK-N-MC cells stably transfected with human FAAH cDNA (G418 selection); alternatively T84 cell pellets
Conditions: read-out: Assay 1 IC50
Structures can show the parent of a compound that is named as a salt.
Note to self: use met only for IC50 readings below 3 µM; a reading exactly at 3 µM still gets not met.

Lab note: confirm whether the reported IC50 for this compound is below 3 µM, equality not counting. compound: O=C(Nc1cccnc1F)N1CC2(CCN(Cc3cccc(Oc4ccc(Cl)cc4)c3)CC2)C1 [Example 80, trifluoroacetic acid salt]
met

Lab note: confirm whether the reported IC50 for this compound is below 3 µM, equality not counting. compound: N#Cc1ccc(Oc2cccc(CN3CCC4(CC3)CN(C(=O)Nc3cccnc3)C4)c2)cc1
not met

Lab note: confirm whether the reported IC50 for this compound is below 3 µM, equality not counting. compound: O=C(Nc1cnc2[nH]ccc2c1)N1CC2(CCN(Cc3ccc4c(c3)OC(F)(F)O4)CC2)C1
met

Lab note: confirm whether the reported IC50 for this compound is below 3 µM, equality not counting. compound: O=C(Nc1cccnc1)N1CC2(CCN(Cc3ccc4ccccc4c3O)CC2)C1
not met
